All figures here come from the supplement of paper PMC10307832.

Quick reference for relative viability among some compounds
tested on: H3255; assay: relative viability (nuclei count vs DMSO), 5 days (fraction); higher = more cells survive; details: first compound 0.1 µM

Consider the reported relative viability for these compounds:
Cc1cn(-c2cc(NC(=O)c3ccc(C)c(Nc4nccc(-c5cccnc5)n4)c3)cc(C(F)(F)F)c2)cn1 [Nilotinib] + NC(=O)Nc1cc(-c2cccc(F)c2)sc1C(=O)N[C@H]1CCCNC1 [AZD7762] (partner 0.2 µM) :: 0.733
Cc1cn(-c2cc(NC(=O)c3ccc(C)c(Nc4nccc(-c5cccnc5)n4)c3)cc(C(F)(F)F)c2)cn1 [Nilotinib] + C[C@]1(O)C[C@@H](c2nc(-c3ccc4ccc(-c5ccccc5)nc4c3)c3c(N)nccn32)C1 [Linsitinib] (partner 1 µM) :: 0.952
Cc1cn(-c2cc(NC(=O)c3ccc(C)c(Nc4nccc(-c5cccnc5)n4)c3)cc(C(F)(F)F)c2)cn1 [Nilotinib] + Cc1nc(Nc2ncc(C(=O)Nc3c(C)cccc3Cl)s2)cc(N2CCN(CCO)CC2)n1 [Dasatinib] (partner 0.075 µM) :: 0.304
Cc1cn(-c2cc(NC(=O)c3ccc(C)c(Nc4nccc(-c5cccnc5)n4)c3)cc(C(F)(F)F)c2)cn1 [Nilotinib] + O=C(CCCCCCC(=O)Nc1ccccc1)NO [Vorinostat] (partner 1 µM) :: 0.429
Cc1cn(-c2cc(NC(=O)c3ccc(C)c(Nc4nccc(-c5cccnc5)n4)c3)cc(C(F)(F)F)c2)cn1 [Nilotinib] + Cc1nc(NC(=O)N2CCC[C@H]2C(N)=O)sc1-c1ccnc(C(C)(C)C(F)(F)F)c1 [Alpelisib] (partner 2 µM) :: 0.796

Could you now look at the following compound, please?
relative viability for Cc1cn(-c2cc(NC(=O)c3ccc(C)c(Nc4nccc(-c5cccnc5)n4)c3)cc(C(F)(F)F)c2)cn1 [Nilotinib] + COc1cccc2cc(-c3nc([C@H]4CC[C@H](C(=O)O)CC4)n4ncnc(N)c34)[nH]c12 [OSI-027] (partner 0.5 µM) ? 0.621
